Known apparent Kd of a selection of sequences
# Tested on: MS2 coat protein
# protocol-summary: apparent Kd, MS2 coat protein; higher = weaker binding; RNA-MaP array
# condition-set: designed as: OFF switch for flavin mononucleotide; no ligand
Numbers only here, please. The scale is nM.

UCGGACCGAGGAUAUACAGUUCGUGAAGGUAAGAUACACAGACAUGAGGAUCACCCAUGUAGAAGGCGGAGUCC 12.1

Query block: Fill blank: measured apparent Kd of the sequence ACGAAUCCCGUUCCGUGAGGACAUGAGGAUCACCCAUGUUGCAGAAGGGCCGAGCGGAUGGCGAGGCAGGAUAUGCCACAGAUC is ____.
Result block: 27.6

Query block: Fill blank: measured apparent Kd of the sequence GGGACCGCAGCGUCAUACAUGAGGAUCACCCAUGUUUUACUAAGAAGGAUUAGGAAAGUAAGCUAAUAGGAUAUUACAAGGACA is ____.
Result block: 22.4

Query block: Fill blank: measured apparent Kd of the sequence GUACACUCCACAGGAUAUGGUGUAGACCCUACGCCAGAAGGGUGCGUGGGUACAUGAGGAUCACCCAUGUUAAGUUUACAUACG is ____.
Result block: 12.9

Query block: Fill blank: measured apparent Kd of the sequence ACCGGAAAAGGAUAUCGAAUUAGCAACAUGAGGAUCACCCAUGUCUGUCGCUCGUGUAUUCGAGAAGGUUUCGCCC is ____.
Result block: 4.96

Query block: Fill blank: measured apparent Kd of the sequence AGCAUGGUUGGAGGAUAUUCCGCCGUAGUGCUGAAUCCCGGACAUGAGGAUCACCCAUGUGAGCGGAAGAAGGCCAAGUUGUCC is ____.
Result block: 15.5

----------
# System: MS2 coat protein
# protocol-summary: apparent Kd, MS2 coat protein; higher = weaker binding; RNA-MaP array; FMN 200 µM where present
# condition-set: designed as: OFF switch for flavin mononucleotide; no ligand
Known apparent Kd of a selection of sequences
Numbers only here, please. The scale is nM.

These recorded examples may help you get a feel for the data.
CGCACUGAUAGAGGAUAUGUUUAACAUGAGGAUCACCCAUGUGUACAAGGAUCAAUAUAUAAGUAACAGAAGGCUAUUAGUGCG 13.9
UGCAGGUGAGGAUAUGCGGGCGAGCUAACAUAAGCAUCGAAGCAGAAGGCACAUGAGGAUCACCCAUGUAGUCC 18.9
GGAUGACAAAGUCAUCCUUAACGAACAUGAGGAUCACCCAUGUAGGAUAUGCAACUCAAAGAGUUGCAGAAGGACAUGUGCCUU 35.9
ACGGCAGUCAGAGGAUAUGGUUACAUGAGGAUCACCCAUGUCAAGGGUCUAAUUAGGUAUAACUACCAGAAGGCUGAAGGCCUA 64.5
CUGACGAUGUAAGGAUAUGCUGAGGAUAACUCAGCAGAAGGUACAUGAGGAUCACCCAUGUAACGUCAGAAUAAUAAUAAUAAU 12.6

Query block: Which apparent Kd is reported with MS2 coat protein for this entry: CUUUUGUGAGGAUAUUAGUAGUAAACAAACAAAAUUAUUACUGAGAAGGCACAUGAGGAUCACCCAUGUUCCUC ?
Result block: 39.7

Query block: Which apparent Kd is reported with MS2 coat protein for this entry: CGCACUUAGCGAGGAUAUGUAAAACAUGAGGAUCACCCAUGUGAUUUAGUAUCAAUUUUAAUGAAACAGAAGGCGCUUAGUGCG ?
Result block: 8.26

Query block: Which apparent Kd is reported with MS2 coat protein for this entry: CUUUUGUGAGGAUAUUGGUAGUAAAUGAAUAAAAUUAUUACCGAGAAGGCACAUGAGGAUCACCCAUGUUCCUC ?
Result block: 47.7

Query block: Which apparent Kd is reported with MS2 coat protein for this entry: AAUUAUUCAGGAGGAUAUCCCAGGACAUGAGGAUCACCCAUGUUCGGGUUGCCCUCAUGAACGCCGGAGAAGGCCUGAACGAAU ?
Result block: 13

Query block: Which apparent Kd is reported with MS2 coat protein for this entry: CGAUGAGGUGUGAGGAUAUCGUGUUCGAAAGAACGUGAGAAGGCACAUGAGGAUCACCCAUGUGAACCUUGUCG ?
Result block: 16.9

Query block: Which apparent Kd is reported with MS2 coat protein for this entry: ACUUUACGAGGAUAUACUGUCGGGCCUCGGGCAUACAUACGACAUGAGGAUCACCCAUGUAGAAGGCGUUUACU ?
Result block: 33.6

Query block: Which apparent Kd is reported with MS2 coat protein for this entry: UGAUACUAAGAGAAGGUUCAAACUACAUAUUGCAUACAUGAGGAUCACCCAUGUUGGUGAAUAAGAAAGGAUAUUUUACUAUAU ?
Result block: 48.2

Query block: Which apparent Kd is reported with MS2 coat protein for this entry: AAAUACCUUGUGAUCAGCGUAACAUGAGGAUCACCCAUGUUGCAGGAUAUCGAACCCAGUCAGUACGAGAAGGGCAAUAGUGUU ?
Result block: 7.16

Query block: Which apparent Kd is reported with MS2 coat protein for this entry: GUUAUGUCAGGAUAUGCUUAUGGUGGGUGCUCAGACAUGAUGCAGAAGGGACAUGAGGAUCACCCAUGUACUGU ?
Result block: 593

Query block: Which apparent Kd is reported with MS2 coat protein for this entry: GUGUACGGAGGAUAUAUAUGGGCAGCAUACGCUGCAGCUUCACAUGAGGAUCACCCAUGUAGAAGGCUGUGCAC ?
Result block: 22.4

Query block: Which apparent Kd is reported with MS2 coat protein for this entry: GUUUUGAUAGGAUAUACAUGAGGAUCACCCAUGUCCCACCCGUUACCUAUGACCAUAUGUAGAAGGAUCGUUUG ?
Result block: 98.1

Query block: Which apparent Kd is reported with MS2 coat protein for this entry: ACCAUUUACUAAUUAUCUAUACAUGAGGAUCACCCAUGUUAAGAGGAUAUCAUCGUUCGCCGCGUUGAGAAGGCUUAGCAUUCG ?
Result block: 26.4

Query block: Which apparent Kd is reported with MS2 coat protein for this entry: GUUAAACAUGAGGAUCACCCAUGUAAGGAUAUGCUGCGGUAGAGAUGAAGUGAAUGCAGCAGAAGGUACAAUUG ?
Result block: 124

Query block: Which apparent Kd is reported with MS2 coat protein for this entry: GCAAUCGAGGGAGGAUAUUGUGAGAUGGUGACAUGAGGAUCACCCAUGUGACGAGAAGGCCCAGUGCGCCCGCUUAACUGCUGA ?
Result block: 37.4

----------
# Tested on: MS2 coat protein
# protocol-summary: apparent Kd, MS2 coat protein; higher = weaker binding; RNA-MaP array
# condition-set: designed as: ON switch for flavin mononucleotide; no ligand
Label rule met when apparent Kd >= 0.02 µM; otherwise rule not met.

UUAACAUGAGGAUCACCCAUGUGAAGCCGGCGAUGAAUAGUACAGGAUAUCGAAUACCGCCUAGACGAGAAGGGUAUCAAUCGG rule not met

Query block: Determine whether this sequence has apparent Kd no lower than 0.02 µM: UUCUUACAUGAGGAUCACCCAUGUUCUGAUAGAGCAGGAUAUGAUGGUUAGAAGUAGAAAUCAGAAGGGCUCCAUG
Result block: rule met

Query block: Determine whether this sequence has apparent Kd no lower than 0.02 µM: AAAUAUCAGUAGAAGGGCAUUUAAUCGAGACAUGCAGGAUAUACCAAUAACAGAUAAUUCUACAUGAGGAUCACCCAUGUACAG
Result block: rule not met

Query block: Determine whether this sequence has apparent Kd no lower than 0.02 µM: CCAACAACGGAGAAGGCGUGACUGGUUUCACAGACAGUGUGGCACAUGAGGAUCACCCAUGUGAACGAGGAUAUCCGUGUGCGA
Result block: rule not met

Query block: Determine whether this sequence has apparent Kd no lower than 0.02 µM: GCAUGACAUGAGGAUCACCCAUGUGAAUUGUAGGAAGGAUAUAAUACUUGAUCCGCUGUCUUAGAAGGUCCAUAAU
Result block: rule met

Query block: Determine whether this sequence has apparent Kd no lower than 0.02 µM: AAAUUACGUAAGAAGGCCAUAGGAACUGAAGCAAGCUCGACGACACAUGAGGAUCACCCAUGUCUGGAGGAUAUUAUGAUAUCU
Result block: rule not met

----------
# Test system: MS2 coat protein
# protocol-summary: apparent Kd, MS2 coat protein; higher = weaker binding; RNA-MaP array
# condition-set: designed as: OFF switch for flavin mononucleotide; no ligand
value-type: apparent Kd (nM)
Numbers only here, please. The scale is nM.

These recorded examples may help you get a feel for the data.
AAGGCGUCAGGAUAUACGUCAUCUUCAAAUAACAUAACAAUACAUGAGGAUCACCCAUGUAGAAGGGACCAGCC 6.37
GCAAGGUUUGUAGGAUAUCGCGUGUGAUUGAACAUGAGGAUCACCCAUGUGGAGGUUCCAUUAUCCGAGAAGGACAAGACUCGA 155

Next sequence, please.
Query block: Fill blank: measured apparent Kd of the sequence CGUCACCUAAAAGGAUAUCUACAAUACAGGAUUGCGUCUCACAUGAGGAUCACCCAUGUGUGUCCAGAGAAGGUUUCGGCACGU is ____.
Result block: 8.55

Data origin, for the record: the EternaBench riboswitch data
